Data origin: patent US20240239878A1

Documented Kd across a set of binders
Molecular target: T1, human DLL3 antigen protein (Kactus Biosystems, Cat. No. DLL-HM103) (human, UniProt Q9NYJ7 27-492)
T1 sequence: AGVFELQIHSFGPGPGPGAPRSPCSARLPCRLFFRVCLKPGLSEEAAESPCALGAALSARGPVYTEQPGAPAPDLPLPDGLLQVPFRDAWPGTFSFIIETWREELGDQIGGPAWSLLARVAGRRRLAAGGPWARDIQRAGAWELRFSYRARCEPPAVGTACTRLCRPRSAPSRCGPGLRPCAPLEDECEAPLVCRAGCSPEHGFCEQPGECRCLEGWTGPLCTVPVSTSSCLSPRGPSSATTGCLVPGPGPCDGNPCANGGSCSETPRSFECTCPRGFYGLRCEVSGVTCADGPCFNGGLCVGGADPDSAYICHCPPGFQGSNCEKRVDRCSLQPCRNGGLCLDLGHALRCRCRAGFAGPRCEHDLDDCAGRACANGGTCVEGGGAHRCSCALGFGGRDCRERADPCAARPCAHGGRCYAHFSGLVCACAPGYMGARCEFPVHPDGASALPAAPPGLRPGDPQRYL
Assay: affinity assay with human DLL3 antigen protein (kinetics; method not restated, Biacore as in Example 18 implied)
Answer in nM, number only, no unit symbol.

These solved cases illustrate the format of a correct answer.
[
  {
    "Binder": "H2-39E2D11-NA humanized antibody variant (antibody, V domains shown, Variant of H2-39E2D11; Its constant regions are not restated) VH: QVQLVQSGAEVKKPGASVKVSCKASGYTFISYWITWVRQAPGQGLEWMGDIYPGSGSTTNYNEKFKSRVTMTRDTSTSTVYMELSSLRSEDTAVYYCARETTVGGAYAMDYWGQGTLVTVSS VL: EIVLTQSPATLSLSPGERATLSCRASQSINNNLHWYQQKPGQAPRLLIKYVSQSISGIPARFSGSGSGTDFTLTISSLEPEDFAVYYCQQTNAWPLTFGGGTKLEIK",
    "Kd, nM": 0.484
  },
  {
    "Binder": "H2-39E2D11-AS humanized antibody variant (antibody, V domains shown, Variant of H2-39E2D11; Its constant regions are not restated) VH: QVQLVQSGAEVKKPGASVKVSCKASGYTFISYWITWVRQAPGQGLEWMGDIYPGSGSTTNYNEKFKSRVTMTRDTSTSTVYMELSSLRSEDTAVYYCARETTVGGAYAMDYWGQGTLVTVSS VL: EIVLTQSPATLSLSPGERATLSCRASQSINNNLHWYQQKPGQAPRLLIKYVSQSISGIPARFSGSGSGTDFTLTISSLEPEDFAVYYCQQTASWPLTFGGGTKLEIK",
    "Kd, nM": 1.76
  },
  {
    "Binder": "H2-39E2D11 mouse hybridoma-derived humanized anti-DLL3 antibody (antibody, V domains shown) VH: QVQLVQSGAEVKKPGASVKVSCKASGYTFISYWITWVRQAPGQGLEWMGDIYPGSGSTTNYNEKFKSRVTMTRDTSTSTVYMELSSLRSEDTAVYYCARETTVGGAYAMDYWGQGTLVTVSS VL: EIVLTQSPATLSLSPGERATLSCRASQSINNNLHWYQQKPGQAPRLLIKYVSQSISGIPARFSGSGSGTDFTLTISSLEPEDFAVYYCQQTNSWPLTFGGGTKLEIK",
    "Kd, nM": 0.739
  }
]

--- query ---
Return reported Kd. Input binder: H2-39E2D11-QS humanized antibody variant (antibody, V domains shown, Variant of H2-39E2D11; Its constant regions are not restated) VH: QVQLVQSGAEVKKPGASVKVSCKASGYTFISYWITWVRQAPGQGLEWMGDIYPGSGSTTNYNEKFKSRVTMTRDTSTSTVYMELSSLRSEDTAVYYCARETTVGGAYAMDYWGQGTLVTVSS VL: EIVLTQSPATLSLSPGERATLSCRASQSINNNLHWYQQKPGQAPRLLIKYVSQSISGIPARFSGSGSGTDFTLTISSLEPEDFAVYYCQQTQSWPLTFGGGTKLEIK
0.229
